- System: HCT-15 colon
- PROTOCOL SUMMARY: NCI-60 one-dose screen, 48 h (100 = growth as untreated, 0 = no growth, -100 = all killed)
- CONDITION INFO: 10 µM unless noted
The panel holds about 83,000 compounds, 20% with a hit somewhere; the sample as a whole holds those more often.
READOUT TYPE: growth (%)
Express the result in % but write the number alone.

## Input Please give the measured growth for this compound: "Cc1nc(-c2ccc(Cl)cc2)ccc1NC(=O)Nc1cccc(C(F)(F)F)c1"
## Output 82.1

## Input Which growth value belongs to "O=C(C[n+]1cccc(Br)c1)c1ccc2c(c1)CCCC2" ?
## Output 99.4

## Input Tell me the measured growth of "O=C(CSc1nnc(-c2ccccc2)o1)Nc1ccc(C(=O)/C=C/c2ccccc2)cc1" , please.
## Output 25.8

## Input What value of measured growth is listed for "O=[N+]([O-])c1cccc(C2c3ccccc3Oc3ccccc32)c1" ?
## Output 71.1

###

- Tested on: NCI-H226 lung
- PROTOCOL SUMMARY: NCI-60 one-dose screen, 48 h (100 = growth as untreated, 0 = no growth, -100 = all killed)
- CONDITION INFO: 10 µM unless noted
This is part of a sample that, as a whole, favours compounds with a hit. Of some 83,000 tested, about 20% had one in any assay.
READOUT TYPE: growth (%)
State the answer as a number, implicitly in %.

Answered examples (4):
## Input // query growth value for entry "O=C1C(Cl)=C(Nc2cccc3cc4ccccc4nc23)C(=O)c2ccccc21"
## Output 67.2

## Input Look up growth for this molecule: "O=C(Nc1ccc(-n2ccc3c(NC(=O)c4ccccc4)ncnc32)cc1)Nc1cccc(Cl)c1Cl"
## Output -37.6

## Input What value of growth has been reported for the following molecule? "O=C(Nc1ccccc1Cl)c1c[nH]c(=O)c(-c2ccc(N3CCCOC4(CC4)C3)cc2)c1"
## Output 50.9

## Input I'd like to know its growth. The molecule in question is COc1ccc(C2CC(c3cc(Cl)c(C)cc3OC)=NN2c2ccc(S(N)(=O)=O)cc2)cc1OC (stereo not given)
## Output 81.3

Let us examine a further case.
## Input For the molecule shown here, "Cc1ncc(CO)c(C(=O)O)c1O" , give the reported growth.
## Output 102

###

- System: SF-539 CNS
- PROTOCOL SUMMARY: NCI-60 one-dose screen, 48 h
- CONDITION INFO: 10 µM unless noted
- Method: Cells are grown in 96 well plates and exposed to the test compound for 48 hours. Compounds are tested at a single concentration, which is 10^-5 M for most compounds. The reported endpoint is percent growth (GI% or GIPRCNT), where numbers from 0 - 100% represent growth inhibition, and numbers from -100% - 0 represent cell death. For example, a value of 40 represents 60% growth inhibition. A value of 0 means no net growth occurred over the course of the experiment. […]
About 83,000 compounds went through this panel and 20% of them were active in at least one assay; those are over-represented in the sample as a whole. The source made the active and inactive calls. Rule for the calls: active = growth percent below 10; inactive = the rest.
# output must be one of active, inactive

## Input Hi team, can someone confirm the assay call for "O=C(O)c1ccc(-c2nn(-c3ccc(C(=O)O)cc3)cc2/C=N/Nc2c(F)c(F)cc(F)c2F)cc1" ?
## Output inactive

Could you now consider this next molecule?
## Input # outcome recorded in this test, key = "COc1ccc(Cn2cc(COc3ccc4c5ccnc(C)c5n(CCCc5ccccc5)c4c3)nn2)cc1"
## Output inactive

###

- System: CAKI-1 renal
- PROTOCOL SUMMARY: NCI-60 one-dose screen, 48 h (100 = growth as untreated, 0 = no growth, -100 = all killed)
- CONDITION INFO: 10 µM
Compounds without any hit were thinned out: in the full panel of roughly 83,000, 20% have a hit. Calls of active or inactive are those of the source. The calls were made as follows: active = growth percent below 10; inactive = the rest.
READOUT TYPE: growth

Look over these answered cases.
## Input Which measured growth value corresponds to "COC(=O)Nc1nc2ccc(Sc3ccccc3)cc2[nH]1" ?
## Output 39.1% (inactive)

## Input Reported growth, compound "COc1cccc(-c2nc3sccn3c2-c2ccnc(NCCNC(=O)c3ccccc3)n2)c1" : ____
## Output 84.4% (inactive)

## Input Which growth value belongs to "Oc1ccccc1/C=N/c1ccccn1" ?
## Output 104% (inactive)

## Input Quick check: growth of "O=C(Nc1ccc(-n2ccc3c(NC(=O)c4ccccc4)ncnc32)cc1)c1ccc(Cl)c(C(F)(F)F)c1" ?
## Output 34.8% (inactive)

## Input Recorded growth for CC1OC(n2c3ccccc3c3c4c(c5c6ccccc6[nH]c5c32)C(=O)N(CCN[C@@H]2CCC[C@H]2N)C4=O)CC(O)C1O (some centres not stated) , please?
## Output 78.6% (inactive)

## Input What does the record list as growth for "O=C(Nc1cccc(-n2ccc3c(NC(=O)c4ccccc4)nccc32)c1)Nc1cc(C(F)(F)F)cc(C(F)(F)F)c1" ?
## Output 15.3% (inactive)

## Input What growth value was documented for this compound, "O=C(Nc1cccc(-n2ccc3c(NC(=O)c4ccccc4)nccc32)c1)c1cc(N2CCOCC2)cc(C(F)(F)F)c1" ?
## Output 23.5% (inactive)

## Input Which growth is listed for "O=C(NCCNc1nccc(-c2c(-c3cccc(O)c3)nc3sccn23)n1)c1ccccc1O" ?
## Output 24.3% (inactive)

## Input # get_value(readout='growth', item= "COc1ccccc1P(c1ccccc1OC)c1ccccc1OC" )
## Output 86.2% (inactive)

## Input Can you share its growth? I mean this compound: "O=C(NCCNc1nccc(-c2c(-c3cccc(O)c3)nc3sccn23)n1)Nc1cccc(C(F)(F)F)c1"
## Output 90.3% (inactive)

New cases:
## Input Which growth value is on record for "O=C(/C=C/c1ccco1)c1cccc(Nc2nc(Nc3ccccc3)nc(Nc3ccccc3)n2)c1" ?
## Output 92.8% (inactive)

## Input Any idea what growth was measured for "CC(C)C1(C(C)C)NC(=O)NC1=O" ?
## Output 88.9% (inactive)

## Input Fill in the blank: the reported growth of "COc1cc(Nc2ncccc2C(=O)Nc2nc3ccc(F)cc3s2)cc(OC)c1OC" is ____.
## Output 18.4% (inactive)

## Input I'd like to know its growth. The compound in question is "COc1ccc(-c2nn(-c3ccc(NC(=O)Nc4cc(C(F)(F)F)cc(C(F)(F)F)c4)cc3)cc2-c2ccncc2)cc1Cl"
## Output 5.4% (active)

## Input Would you kindly share the measured growth for "c1ccc([Se]CCCN2CCN(CCC[Se]c3ccccc3)CC2)cc1" ?
## Output -23.6% (active)

## Input # input compound: CN1C(=O)C2(NN=C(c3cccc4ccccc34)S2)c2ccccc21 (configuration not stated) ; wanted: its growth
## Output 25.7% (inactive)

## Input Entry "O=C(NCCNc1nccc(-c2c(-c3cccc(O)c3)nc3sccn23)n1)c1cc(N2CCOCC2)cc(C(F)(F)F)c1" : reported growth = ?
## Output 82.5% (inactive)

## Input Can you share its growth? I mean this compound: "COc1ccc2c(c1)C(=O)/C(=C/c1cccc(OCC(=O)c3ccccc3)c1)O2"
## Output -98.1% (active)

###

- System: HCT-116 colon
- PROTOCOL SUMMARY: NCI-60 one-dose screen, 48 h
- CONDITION INFO: 10 µM unless noted
About 83,000 compounds went through this panel and 20% of them were active in at least one assay; those are over-represented in the sample as a whole. The source made the active and inactive calls. The calls were made as follows: active = growth percent below 10; inactive = the rest.
Classes to choose from: Yes for active, No for inactive

## Input Hello, I am checking results. What call was entered for "COc1cc(C(=O)NNC(=O)c2ccccc2C(=O)O)cc(OC)c1OC" ?
## Output No

## Input Per the records of this test, what outcome belongs to "O=S(=O)(O)c1ccc(F)cc1" ?
## Output No

## Input # outcome recorded in this test, key = "Nc1n[nH]c2cccc(C#Cc3cccc(NC(=O)c4cccc(C(F)(F)F)c4)c3)c12"
## Output Yes

## Input Dear all, I need the recorded test outcome for "COC(=O)c1oc2c(C(=O)/C=C/c3ccc(OC)cc3)c(OCCN3CCOCC3)ccc2c1C" , thank you.
## Output Yes

## Input Entry "Cc1cc(NC(=O)c2cccc(C(F)(F)F)c2)ccc1-n1ccc2c(NC(=O)c3ccccc3)nccc21" : call = ?
## Output No

###

- Test system: SK-MEL-2 melanoma
- PROTOCOL SUMMARY: NCI-60 one-dose screen, 48 h (100 = growth as untreated, 0 = no growth, -100 = all killed)
- CONDITION INFO: 10 µM unless noted
- Procedure: Growth inhibition of the SK-MEL-2 human tumor cell line is measured as a screen for anti-cancer activity. Cells are grown in 96 well plates and exposed to the test compound for 48 hours. Compounds are tested at a single concentration, which is 10^-5 M for most compounds. The reported endpoint is percent growth (GI% or GIPRCNT), where numbers from 0 - 100% represent growth inhibition, and numbers from -100% - 0 represent cell death. For example, a value of 40 represents 60% growth inhibition. […]
Compounds without any hit were thinned out: in the full panel of roughly 83,000, 20% have a hit.
READOUT TYPE: growth (%)
Numeric answer only, unit % assumed.

## Input Any idea what growth was measured for "COc1cc(-c2nc(SCC(=O)Nc3ccc(C(C)=O)cc3)[nH]c(=O)c2C#N)cc(OC)c1OC" ?
## Output 35.9

## Input Requested field: growth. Item: "O=S1(=O)N(CCNc2nccc(-c3c(-c4cccc(O)c4)nc4sccn34)n2)CCN1Cc1ccccc1"
## Output 19.2

## Input Param item = "Cc1c(F)cccc1NC(=O)c1sc2nc3c(cc2c1N)CCCCC3" ; retrieve measured growth.
## Output 40.7

## Input Which growth is reported for this compound? "CN(C)CCCOc1c(Br)cc(/C=C/C(=O)N(C)CCc2cc(Br)c(OCCCN(C)C)c(Br)c2)cc1Br"
## Output 89.3

## Input What does the data say about its growth? Entry: "Cc1cc(SCc2ccc(Cl)cc2Cl)nc(SCc2ccc(Cl)cc2Cl)n1"
## Output 103

## Input Param item = "Nc1nccc2c1ccn2-c1ccc(NC(=O)Nc2cccc(C(F)(F)F)c2)cc1" ; retrieve measured growth.
## Output 113

## Input May I ask what growth has been recorded for "O=C(N/N=C/c1ccccc1O)c1ccccc1O" ?
## Output 61.1

## Input Looking for the measured growth of "O=C(NC(=S)Nc1ccc(Cl)cc1)c1ccccc1" , can you help?
## Output 108

Continuing:
## Input Form field: reported growth of "CNCCCOc1c(Br)cc(CCNC(=O)/C(Cc2ccc(OC)c(Br)c2)=N/O)cc1Br"
## Output 40

## Input Request the reported growth associated with "CSc1ccc(C(=O)C[n+]2cccc(C)c2)cc1"
## Output 110

## Input Please look up its growth: "CCCC(=O)Oc1ccc(/C(=C(\C)c2ccc(OC)cc2)c2ccc(OCCN3CCCCC3)cc2)cc1"
## Output 80.9

## Input Entry "Cc1ccc(/C=C2/C(=O)Nc3cc(Cl)c(-c4csc(N)n4)cc32)cc1" has what growth?
## Output 49.3

## Input I'd like to know its growth. The compound in question is "OCc1cn(-c2ccc(Cl)cc2)nc1-c1ccc(O)cc1"
## Output 95.8

## Input Dear colleague, I am looking for the recorded growth of the following compound: "COc1ccc(Cl)cc1NC(=O)c1cc2c(n1C)-c1nc(NC(=O)C(C)(C)C)sc1CC2"
## Output 79.7

## Input Dear colleague, I am looking for the recorded growth of the following compound: "Cc1ccc2c(c1)Nc1ccc(C)cc1C2(C)C"
## Output 88.9

## Input Looking for the measured growth of C=CC(C)(O)CCC1C(=C)CCC2C(C)(C)CCCC12C (stereo not given) , can you help?
## Output 92.2
